Experiment: qHTS Assay for Lipid Storage Modulators in Drosophila S3 Cells
Settings: BODIPY lipid droplet fluorescence, 18-24 h, cells fed with added oleic acid; series mostly up to 46.1 µM
In all, about 320,000 compounds went through this assay and about 2,100 (0.66%) were called active. Inconclusive results (about 53%) are left out. Calls come from the whole dose curve; as a rule, active = well fitted inhibition curve with a large enough effect in the signal ratio, with a control signal flat (not every such curve was filed as active); inconclusive = small, poorly fitted or top-dose-only effect, or effect the other way, or a change in a side signal; inactive = flat fitted curve, though single readings scatter; the % refers to the signal ratio. Many of the other results were omitted from the sample, so actives are more common in it than they were.
Could you please pick one outcome from this set? active, inactive

> print(dat)
                                   molecule  assigned.category
1    COc1ccc(-c2nn(CCC#N)cc2C=C(C#N)C#N)cc1           inactive
2       O=C1c2cccc3cccc(c23)C(=O)N1c1cccnc1           inactive
3  CCOC(=O)N1CCN(C(=O)C(C)N(c2ccccc2)S(C)(=O)=O)CC1 (stereo unspecified)           inactive
4  CC1=C(C(=O)N(C)C)C(c2ccc(Cl)c(Cl)c2)NC(=O)N1 (stereo unspecified)             active
5  Cn1c(N2CCN(C(=O)Nc3ccc(F)cc3)CC2)nc2ccccc21           inactive
6  CC(C(=O)Nc1ccc(F)c(F)c1F)N(C)Cc1cccs1 (stereo unspecified)           inactive
7  COc1ccc(NC(=O)N2CCN(c3nc4ccccc4n3C(C)C)CC2)cc1             active
8  O=C1c2cccc([N+](=O)[O-])c2C(=O)N1c1cccnc1           inactive

[ask] Recorded test outcome, item CC1=C(C(=O)OCC2CCCO2)C(c2ccc(Cl)c(Cl)c2)NC(=O)N1 (stereo unspecified)
[reply] inactive

[ask] Recorded test outcome, item CCOC(=O)COc1ccc2c(c1)c(C(C)=O)c(C)n2-c1ccc(OC)cc1
[reply] inactive

[ask] Recorded test outcome, item CC(C(=O)N1CCc2ccccc2C1)N(c1ccccc1)S(C)(=O)=O (stereo unspecified)
[reply] active

Measured values drawn from PubChem BioAssay AID2685 for this set.
